Reported mortality at 12.5 ppm values are given for each entry in this list.
- Tested on: Common Cutworm (Spodoptera litura)
- test.description: whole plant or invertebrate
- test.context: Spodoptera litura, in Brassica oleracea, foliar
Use % as the unit, but write only the number.

C/C(=N\C#N)N(C)Cc1ccc(Cl)nc1 [Acetamiprid, acetamiprid]    0
O=[N+]([O-])NC1=NCCN1Cc1ccc(Cl)nc1 [Imidacloprid, imidacloprid]    20
CN/C(=N/CC1CCOC1)N[N+](=O)[O-] (centres unmarked) [Dinotefuran, dinotefuran]    13
CC(C)=CC1C(C(=O)OCc2cccc(Oc3ccccc3)c2)C1(C)C (centres unmarked) [Phenothrin, phenothrin]    20

Now for the molecule whose mortality at 12.5 ppm we want.
The molecule listed as CN/C(=N\[N+](=O)[O-])NCc1cnc(Cl)s1 [Clothianidin, clothianidin] shows mortality at 12.5 ppm equal to 90
